- Measured Target: T1, human TfR apical domain (human)
- T1 chain: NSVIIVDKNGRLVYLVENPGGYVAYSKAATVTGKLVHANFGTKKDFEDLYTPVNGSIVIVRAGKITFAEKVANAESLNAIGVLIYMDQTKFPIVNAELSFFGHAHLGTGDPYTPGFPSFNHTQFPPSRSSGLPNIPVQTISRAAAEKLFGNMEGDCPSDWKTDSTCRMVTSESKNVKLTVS
- Assay: SPR
Listing of entries alongside the reported Kd.

Some solved entries appear below for comparison.
# Binder, Result
measured = [
    ("CH3C.35.23.4 (protein) PCPAPELLGGPSVFLFPPKPKDTLMISRTPEVTCVVVDVSHEDPEVKFNWYVDGVEVHNAKTKPREEQYNSTYRVVSVLTVLHQDWLNGKEYKCKVSNKALPAPIEKTISKAKGQPREPQVYTLPPSRDELTKNQVSLWCLVKGFYPSDIAVEWESYGTEWSNYKTTPPVLDSDGSFFLYSKLTVSKEEWQQGFVFSCSVMHEALHNHYTQKSLSLSPGK", "620 nM"),
    ("42.8.143 (protein) APELLGGPSVFLFPPKPKDTLMISRTPEVTCVVVDVSHEDPEVKFNWYVDGVEVHNAKTKPREEQYNSTYRVVSVLTVLHQDWLNGKEYKCKVSNKALPAPIEKTISKAKGQPREPQVYTLPPSRDELTKNQVSLTCLVKGFYPSDIAVEWFYGDSKLTNYKTTPPVLDSDGSFFLYSKLTVDKSRWQQGNLFACEVMHEALHNHYTYKLLSLSPGK", "450 nM"),
    ("6.5.11.5.42.2 (TV42.2) (protein) APELLGGPSVFLFPPKPKDTLMISRTPEVTCVVVDVSHEDPEVKFNWYVDGVEVHNAKTKPREEQYNSTYRVVSVLTVLHQDWLNGKEYKCKVSNKALPAPIEKTISKAKGQPREPQVYTLPPSRDELTKNQVSLTCLVKGFYPSDIAVEWFSDGSKETNYKTTPPVLDSDGSFFLYSKLTVDKSRWQQGNLFACEVMHEALHNHYTYKLLSLSPGK", "650 nM"),
    ("CH3C.35.23.2 (protein) PCPAPELLGGPSVFLFPPKPKDTLMISRTPEVTCVVVDVSHEDPEVKFNWYVDGVEVHNAKTKPREEQYNSTYRVVSVLTVLHQDWLNGKEYKCKVSNKALPAPIEKTISKAKGQPREPQVYTLPPSRDELTKNQVSLWCLVKGFYPSDIAVEWESYGTEWANYKTTPPVLDSDGSFFLYSKLTVTKEEWQQGFVFSCSVMHEALHNHYTQKSLSLSPGK", "100 nM"),
    ("TV35.d1.9 (protein) PCPAPEAAGGPSVFLFPPKPKDTLMISRTPEVTCVVVDVSHEDPEVKFNWYVDGVEVHNAKTKPREEQYNSTYRVVSVLTVLHQDWLNGKEYKCKVSNKALGAPIEKTISKAKGQPREPQVYTLPPSRDELTKNQVSLWCLVKGFYPSDIAVEWESYGTEWTNYKTTPPVLDSDGSFFLYSKLTVTKSEWQQGFVFSCSVMHEALHNHYTQKSLSLSPGK", "8000 nM"),
]

INPUT: Fill blank: measured Kd of the binder TV35.d1.10 (protein) PCPAPEAAGGPSVFLFPPKPKDTLMISRTPEVTCVVVDVSHEDPEVKFNWYVDGVEVHNAKTKPREEQYNSTYRVVSVLTVLHQDWLNGKEYKCKVSNKALGAPIEKTISKAKGQPREPQVYTLPPSRDELTKNQVSLWCLVKGFYPSDIAVEWESYGTEWVNYKTTPPVLDSDGSFFLYSKLTVTKSEWQQGFVFSCSVMHEALHNHYTQKSLSLSPGK is ____.
OUTPUT: 2500 nM
